Listed next: entries and their corresponding GI50.
Test system: HOP-62 NSCLC
Test: NCI tumour cell line growth inhibition, 48 h

| entrySmiles | experimentalTarget | recordedValue |
| --- | --- | --- |
| CCCCCCCCCCCCCC[C@@H](O)[C@H]1CC[C@H]([C@H]2CC[C@H]([C@H](O)CCCCCC[C@@H](O)CC3=C[C@H](C)OC3=O)O2)O1 | HOP-62 NSCLC | 2.74 µM |
| COc1cc2cc(Oc3ccc(NC(=O)Nc4ccc(Cl)c(Cl)c4)cc3)c(C)nc2cc1OC | HOP-62 NSCLC | 3.55 µM |
| CC1=C(Nc2ccc(N3CCN(C)CC3)cc2)C(=O)c2cncnc2C1=O | HOP-62 NSCLC | 19.2 µM |

Consider the record given below.
Query: Name the reported GI50 value associated with the compound "O=C(COc1cccc(/C=C2\CSc3ccccc3C2=O)c1)Nc1nccs1"
Result: 11 µM
